System: RARg:RXRa (NR concentration 270 nM, RXRa partner concentration 90 nM)
Assay Remarks: PBM binding z-score (relative to random genomic background probes); higher = stronger binding; sequences stand for … in GC…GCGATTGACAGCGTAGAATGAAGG
Hi, to clarify the labels: satisfied covers PBM binding z-score from 0.8 upward, not satisfied covers anything below 0.8.

Some solved entries appear below for comparison.
ACTCGGAGGACAAAGGTCATAGCTACGCCAGTGA : satisfied
CCTATTAGTTGACCATAAGGGCAACCGCAGCTCG : satisfied
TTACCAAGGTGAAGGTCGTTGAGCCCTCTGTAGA : satisfied
AGAACGAGGGCACGCTGAGTTGCTAGCAGAGTAG : satisfied
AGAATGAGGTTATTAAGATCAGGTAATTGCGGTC : satisfied
CCTACTGGGCCCAAAAGGTCATTGATGCCGATAA : satisfied

Lookup: Could you please find out whether TCTTGTAGATCAACAGAGGTTAAGAAAGTGCGCT has PBM binding z-score that meets 0.8 or exceeds it?
Found: satisfied

Lookup: Could you please find out whether TCTGCTAGGTCAACGATGGGCAGCTAATCTGCTA has PBM binding z-score that meets 0.8 or exceeds it?
Found: satisfied

Lookup: Could you please find out whether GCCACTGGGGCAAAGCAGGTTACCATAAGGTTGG has PBM binding z-score that meets 0.8 or exceeds it?
Found: not satisfied

Lookup: Could you please find out whether GATACAGGGTCAAGGCCCGAGTACGCGTATTGAT has PBM binding z-score that meets 0.8 or exceeds it?
Found: satisfied

Lookup: Could you please find out whether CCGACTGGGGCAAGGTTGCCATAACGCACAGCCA has PBM binding z-score that meets 0.8 or exceeds it?
Found: not satisfied

Lookup: Could you please find out whether AGAATGAGGTTATTAAGATCAGGGACTTGCGGTC has PBM binding z-score that meets 0.8 or exceeds it?
Found: satisfied

Lookup: Could you please find out whether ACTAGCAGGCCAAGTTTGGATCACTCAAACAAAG has PBM binding z-score that meets 0.8 or exceeds it?
Found: not satisfied

Lookup: Could you please find out whether ATCTCTAGGTAAAAGTTCAGTGAATCCCGAGGAT has PBM binding z-score that meets 0.8 or exceeds it?
Found: satisfied

Lookup: Could you please find out whether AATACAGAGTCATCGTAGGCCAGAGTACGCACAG has PBM binding z-score that meets 0.8 or exceeds it?
Found: not satisfied

Lookup: Could you please find out whether GCTATTAGTTGAAAGGGCTACCGAATGATTCTCG has PBM binding z-score that meets 0.8 or exceeds it?
Found: not satisfied

Lookup: Could you please find out whether ATATGTAGGTTAAGGGTCATTCAGGTTGGTTCGC has PBM binding z-score that meets 0.8 or exceeds it?
Found: satisfied

Lookup: Could you please find out whether CCTATTAGTTGAGCATAAGGGCAACCGAAGCTCG has PBM binding z-score that meets 0.8 or exceeds it?
Found: not satisfied

Lookup: Could you please find out whether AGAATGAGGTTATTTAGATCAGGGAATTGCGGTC has PBM binding z-score that meets 0.8 or exceeds it?
Found: satisfied

Lookup: Could you please find out whether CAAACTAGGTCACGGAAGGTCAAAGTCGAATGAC has PBM binding z-score that meets 0.8 or exceeds it?
Found: satisfied

###

Tested on: RXRa homodimer (NR concentration 180 nM)
Assay Remarks: PBM binding z-score (relative to random genomic background probes); higher = stronger binding; sequences stand for … in GC…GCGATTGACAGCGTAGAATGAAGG
Hi, to clarify the labels: YES covers PBM binding z-score from 1 upward, NO covers anything below 1.

Some solved entries appear below for comparison.
AGAACGAGGGGAATGAGTTGATAGCACGGGTGGC : NO
CGTCAAAGTTCAAGGTGACGTAACAGAAAGCAGC : YES

Lookup: Could you please find out whether TGAATGAGGTTAAAGATTAGGGAACGTGGCGTCG has PBM binding z-score that meets 1 or exceeds it?
Found: YES

Lookup: Could you please find out whether TCGAGTAGGTTACCAATGGGGTATTCAGCTTTCT has PBM binding z-score that meets 1 or exceeds it?
Found: NO

Lookup: Could you please find out whether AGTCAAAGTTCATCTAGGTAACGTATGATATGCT has PBM binding z-score that meets 1 or exceeds it?
Found: YES

These measurements were taken from the supplement of paper PMC6555819.
